- ASSAY METHOD TEXT: Half life in Wistar rat at 0.2 mg/kg, iv
- MEASUREMENT CONDITIONS: in vivo
REPORTED ENDPOINT: half-life (min)
Dear colleague, please return just the value in min, with no unit written.

Read off the recorded half-life for COc1cc2nc(-c3nc(C(F)(F)F)sc3N3CCN(C(=O)Cn4cnc5cccnc54)[C@H](C)C3)[nH]c2cc1OC
30

###

- ASSAY METHOD TEXT: Unbound fraction in human plasma by equilibrium based LC-MS/MS analysis
Record YES whenever fraction unbound is at 0.1 or higher; record NO when lower.

Worked examples, 4 compounds total:
Cc1nn(CC(=O)N2CCN(c3sc(C(F)(F)F)nc3-c3nc4ccccc4[nH]3)C[C@H]2C)cc1CN(C)C YES
C[C@@H]1CN(c2sc(C(F)(F)F)nc2-c2nc3ccccc3[nH]2)CCN1C(=O)Cn1cnc2c1CCN(C)C2 YES
Cc1nc(C)n(CC(=O)N2CCN(c3sc(C(F)(F)F)nc3-c3nc4ccccc4[nH]3)C[C@H]2C)n1 YES
C[C@@H]1CN(c2sc(C(F)(F)F)nc2-c2nc3ccccc3[nH]2)CCN1C(=O)Cn1cccn1 NO

Okay, now this compound:
Item C[C@@H]1CN(c2sc(C(F)(F)F)nc2-c2nc3ccccc3[nH]2)CCN1C(=O)Cn1cnc2cccnc21 with fraction unbound of 0.1 or above?
NO

###

- ASSAY METHOD TEXT: Clearance in Balb/c mouse at 10 mg/kg, po
- MEASUREMENT CONDITIONS: in vivo
REPORTED ENDPOINT: CL/F
Kindly write the number and append the unit.

Read off the recorded CL/F for C[C@@H]1CN(c2sc(C(F)(F)F)nc2-c2nc3ccccc3[nH]2)CCN1C(=O)Cn1cnc2cccnc21
41 mL/min/kg

###

- MEASURED ON: UniProt Q12809
- Sequence (Q12809 whole entry): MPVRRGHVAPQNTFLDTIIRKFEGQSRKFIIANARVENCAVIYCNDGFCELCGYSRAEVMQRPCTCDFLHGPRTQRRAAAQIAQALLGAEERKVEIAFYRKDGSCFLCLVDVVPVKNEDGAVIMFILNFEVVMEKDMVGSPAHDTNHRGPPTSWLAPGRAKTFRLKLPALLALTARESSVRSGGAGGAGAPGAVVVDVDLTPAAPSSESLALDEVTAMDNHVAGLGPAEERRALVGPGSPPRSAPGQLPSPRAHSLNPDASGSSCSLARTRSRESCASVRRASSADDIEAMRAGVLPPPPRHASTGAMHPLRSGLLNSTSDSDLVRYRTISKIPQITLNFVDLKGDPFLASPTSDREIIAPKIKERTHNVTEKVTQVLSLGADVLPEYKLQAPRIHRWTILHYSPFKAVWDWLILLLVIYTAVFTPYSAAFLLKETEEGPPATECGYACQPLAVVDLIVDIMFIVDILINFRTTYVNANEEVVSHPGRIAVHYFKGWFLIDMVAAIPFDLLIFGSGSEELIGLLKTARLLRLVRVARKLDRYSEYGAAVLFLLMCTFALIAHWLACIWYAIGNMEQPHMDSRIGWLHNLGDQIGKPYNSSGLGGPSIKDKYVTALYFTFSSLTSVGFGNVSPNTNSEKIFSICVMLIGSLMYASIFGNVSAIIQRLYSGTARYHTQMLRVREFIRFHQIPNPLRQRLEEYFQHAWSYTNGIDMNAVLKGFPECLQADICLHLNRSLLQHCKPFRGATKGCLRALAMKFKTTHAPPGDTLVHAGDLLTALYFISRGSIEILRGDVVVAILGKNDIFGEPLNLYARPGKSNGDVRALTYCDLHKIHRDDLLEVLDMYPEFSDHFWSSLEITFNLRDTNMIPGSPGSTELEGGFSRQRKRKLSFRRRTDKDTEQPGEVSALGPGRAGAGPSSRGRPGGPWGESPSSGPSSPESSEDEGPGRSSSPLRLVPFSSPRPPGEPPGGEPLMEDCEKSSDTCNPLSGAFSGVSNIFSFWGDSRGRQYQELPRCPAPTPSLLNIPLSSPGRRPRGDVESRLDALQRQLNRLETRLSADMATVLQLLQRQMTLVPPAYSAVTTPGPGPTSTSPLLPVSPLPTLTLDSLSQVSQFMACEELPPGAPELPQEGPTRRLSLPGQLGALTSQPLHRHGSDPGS
- ASSAY METHOD TEXT: Inhibition of hERG expressed in CHO cells at 3 uM at -80 mV holding potential assessed as current block incubated for 3 mins by Qpatch clamp method relative to control
REPORTED ENDPOINT: inhibition at 0.05 h, 3 µM (%)
Dear colleague, please return just the value in %, with no unit written.

Some compounds with known inhibition at 0.05 h, 3 µM results, for comparison:
Cc1nc(C)n(CC(=O)N2CCN(c3sc(C(F)(F)F)nc3-c3nc4ccc(OC5CNC5)cc4[nH]3)C[C@H]2C)n1 0
C[C@@H]1CN(c2sc(C(F)(F)F)nc2-c2nc3ccccc3n2C)CCN1C(=O)Cn1cccn1 46
Cc1nc(C)n(CC(=O)N2CCN(c3sc(C(F)(F)F)nc3-c3nc4ccc(S(C)(=O)=O)cc4[nH]3)C[C@H]2C)n1 8

Read off the recorded inhibition at 0.05 h, 3 µM for Cc1nc(C)n(CC(=O)N2CCN(c3sc(C(F)(F)F)nc3-c3nc4ccc(C5CCOCC5)cc4[nH]3)C[C@H]2C)n1
18

Read off the recorded inhibition at 0.05 h, 3 µM for C[C@@H]1CN(c2sc(C(F)(F)F)nc2-c2nc3ccccc3[nH]2)CCN1C(=O)Cn1cc(C2CCN(C)CC2)cn1
74

Read off the recorded inhibition at 0.05 h, 3 µM for Cc1nc(C)n(CC(=O)N2CCN(c3sc(C(F)(F)F)nc3-c3nc4cc(N5CCOCC5)cc(F)c4[nH]3)C[C@H]2C)n1
6

Read off the recorded inhibition at 0.05 h, 3 µM for C[C@@H]1CN(c2sc(C(F)(F)F)nc2-c2nc3ccccc3[nH]2)CCN1C(=O)Cn1cnc2c1CCN(C)C2
33
